A collection of compounds and their measured T/C
- Test system: BDF1 mice, P388 leukemia ip, median survival T/C
- assay.method.text: NCI In Vivo Anticancer Drug Screen. Data for tumor model P388 Leukemia (intraperitoneal) in B6D2F1 (BDF1) mice
- assay.context: endpoint: median survival time; dose: 200.0 mg/kg/injection; schedule: Q04DX003 (ip); vehicle: saline; higher = longer survival
Toxic doses and inconclusive results are not listed.
assay.readout: T/C

• CCCCC1(CC)COC(C)(Cc2ccccc2)OC1 (stereo not drawn) = 100 % of control
• CCCCCCCCCCCCCCCC[N+]1(C)CCN(SN2CC[N+](C)(CCCCCCCCCCCCCCCC)CC2)CC1 = 104 % of control
• C/C(=C\Br)CO = 90 % of control
• CCCN(CCC)CC(C)O (stereo not drawn) = 95 % of control
• CCS(=O)(=O)OCCCl = 91 % of control
• Cc1cc([N+](=O)[O-])cc([N+](=O)[O-])c1OC(=O)c1ccc(N=C(N)N)cc1 = 90 % of control
• O/N=c1/cc(-c2cccs2)ss1 = 118 % of control
• COc1cc2c[n+](C)c3c4cc(OC)c(OC)cc4ccc3c2cc1OC = 95 % of control

====

- System: BDF1 mice, P388 leukemia ip, median survival T/C
- assay.method.text: NCI In Vivo Anticancer Drug Screen. Data for tumor model P388 Leukemia (intraperitoneal) in B6D2F1 (BDF1) mice
- assay.context: endpoint: median survival time; dose: 200.0 mg/kg/injection; schedule: Q01DX009 (ip); vehicle: Klucel (hydroxypropylcellulose) (HPC); higher = longer survival
Toxic doses and inconclusive results are not listed.
A collection of compounds and their measured T/C
assay.readout: T/C

* O=C(O)C1CC=CCCC1 (configuration not stated) | 104 % of control
* O=C1OC(c2ccccc2)=N/C1=C/c1cccs1 | 88 % of control
* CC(c1ccccc1)N1CCS(=O)(=O)CC1 (configuration not stated) | 90 % of control
* CCOC(=O)C(C)C(=O)Cc1cc(OC)c(C)cc1Br (configuration not stated) | 105 % of control
* COc1cc2ccc(C(C)NCC#N)cc2cc1OC (configuration not stated) | 122 % of control
* Cc1ccccc1NS(=O)(=O)c1c([N+](=O)[O-])ncn1C | 116 % of control
* CCOC12c3c4cccc3C(=O)c3cccc(c31)C(=O)c1cccc(c12)C4=O | 100 % of control
* Nc1c(Br)cc(Br)cc1Br | 100 % of control
* CCOc1cc(-c2nccc3cc(OC)c(OC)cc23)cc(OCC)c1OCC | 110 % of control
* CC1(CCBr)NC(=O)NC1=O (configuration not stated) | 105 % of control
* O=C(O)c1ccccc1C(=O)O (tested in a mixture with another compound) | 96 % of control
* Cc1ccc(CCO)c(C)c1 | 90 % of control

====

A collection of compounds and their measured T/C
- Tested on: BDF1 mice, P388 leukemia ip, median survival T/C
- assay.method.text: NCI In Vivo Anticancer Drug Screen. Data for tumor model P388 Leukemia (intraperitoneal) in B6D2F1 (BDF1) mice
- assay.context: endpoint: median survival time; dose: 6.25 mg/kg/injection; schedule: Q01DX009 (ip); vehicle: water; higher = longer survival
Inconclusive results and toxic doses are left out.
assay.readout: T/C

• O=C(c1cc(C(F)(F)F)cc(C(F)(F)F)c1)N1CC1 = 105 % of control
• FC(Cl)(Cl)c1nc2nc(Cl)c(Cl)nc2[nH]1 = 107 % of control
• COc1cc2c[n+](C)c3c4cc(OC)c(OC)cc4ccc3c2cc1OC = 112 % of control
• [NH-]C(CC(N)=O)C(=O)O.[NH-]C(CC(N)=O)C(=O)O.[Ni+2] (stereo unspecified) = 100 % of control
• CN(C)CCCNC1=CC(=O)c2ccccc2C1=O = 99 % of control
• COc1cccc2c1C(=O)c1c(O)c3c(c(O)c1C2=O)CC(O)(C(C)=O)CC3OC1CC(NC(=O)CNC(=O)CN(C)C)C(O)C(C)O1 (stereo unspecified) = 101 % of control
